src = patent US20220031857A1

Target: T1, recombinant mouse TfR2 (mouse, UniProt Q9JKX3 103-798, limits assumed)
T1 construct: Negative control protein
T1 sequence (looked up): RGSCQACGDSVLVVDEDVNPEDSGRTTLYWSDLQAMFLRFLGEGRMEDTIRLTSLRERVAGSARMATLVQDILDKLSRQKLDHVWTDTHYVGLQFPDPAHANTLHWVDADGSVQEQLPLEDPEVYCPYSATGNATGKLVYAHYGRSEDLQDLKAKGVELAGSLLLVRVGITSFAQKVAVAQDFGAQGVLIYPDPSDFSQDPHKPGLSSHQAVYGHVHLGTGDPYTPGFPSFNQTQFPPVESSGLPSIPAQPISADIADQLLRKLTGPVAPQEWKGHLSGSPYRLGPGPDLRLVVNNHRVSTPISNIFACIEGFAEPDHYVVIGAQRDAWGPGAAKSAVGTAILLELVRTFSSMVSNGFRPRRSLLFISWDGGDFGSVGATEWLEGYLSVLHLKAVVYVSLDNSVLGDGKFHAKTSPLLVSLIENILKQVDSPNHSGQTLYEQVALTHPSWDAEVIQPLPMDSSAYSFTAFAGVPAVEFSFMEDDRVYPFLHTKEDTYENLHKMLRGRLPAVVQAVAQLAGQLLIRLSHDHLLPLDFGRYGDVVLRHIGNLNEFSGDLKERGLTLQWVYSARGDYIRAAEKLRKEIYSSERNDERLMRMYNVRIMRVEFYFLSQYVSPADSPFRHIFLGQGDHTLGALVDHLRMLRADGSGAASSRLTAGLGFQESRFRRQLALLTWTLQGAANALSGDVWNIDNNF
Experiment: phage ELISA
readout_kind: binding result

SEQ ID NO 34 (VNAR clone displayed on phage) (VNAR, shark VNAR domain on M13 phage; coat-protein fusion not described) VNAR: ARVDQTPQTITKETGESLTINCVLRDSNCDLSRTYWYRKKSGSTNEESISKGGRYVETVNSGSKSFSLRINDLVVEDSGTYRCNVAVFTRCHNQQDVYGGGTAVTVNA ... no binding
SEQ ID NO 40 (VNAR clone displayed on phage) (VNAR, shark VNAR domain on M13 phage; coat-protein fusion not described) VNAR: ARVDQTPQTITKETGESLTINCVLRDSNCALSSTLWYRTKSGSRNEESISKGGRYVETVNSGSKSFSLRINDLTVEDSGTYRCNVQFSYNCNFWKDVYGGGTDVTVNA ... no binding
SEQ ID NO 12 (VNAR clone displayed on phage) (VNAR, shark VNAR domain on M13 phage; coat-protein fusion not described; also called clone 12) VNAR: ARVDQTPQTITKETGESLTINCVLRDSICALSSTHWYRKKSGSTNEESISKGGRYVETVNSGSKSFSLRINDLTVEDSGTYRCKVVRSGVGPCWADVYGGGTAVTVNA ... no binding
SEQ ID NO 49 (VNAR clone displayed on phage) (VNAR, shark VNAR domain on M13 phage; coat-protein fusion not described) VNAR: ARVDQTPRSVTKETGESLTINCVLRDASYELGSTCWYRKKSGSTNEESISKGGRYVETVNSGSKSFSLRINDLTVEDGGTYRCGVISQYKSYTLWCDALYRSLGCECARAACGDGTAVTVNA ... no binding
